System: A498 renal
method notes: NCI tumour cell line growth inhibition, 48 h; in the data active = GI50 below about 0.43 µM; inactive = the rest
Write down one outcome, taken from active, inactive

Examples with answers:
COc1ccc(-c2cnoc2-c2ccc(OC)cc2O)cc1 = inactive
COc1cc(-c2cncn2-c2ccc(-c3nc4ccc(F)cc4s3)cc2)ccc1F = active
CCCCCCCCCCCCCCCCNC(=O)OC(C)C = active
CCCn1c2c(c3ccccc3c1=O)C(=O)c1cc3c(cc1-2)OCO3 = inactive
CCOC(=O)c1ccc(NC(=O)Nc2nccs2)cc1 = active

stdin: Test call for this compound, please: `O=c1ccc(N=Nc2ccccc2)ccc1Cl`
stdout: inactive

stdin: Test call for this compound, please: `CN(CCO)C1CCN(c2ccc(Nc3ncc4c5ccnc(F)c5n(C5CCCC5)c4n3)nc2)CC1`
stdout: active

stdin: Test call for this compound, please: `COc1cccc(-n2ncc3c(N/N=C/c4ccc(F)cc4)ncnc32)c1`
stdout: inactive

stdin: Test call for this compound, please: `Cc1ccc2c(NCCCN(C)C)c3c(C)nn(C)c3nc2c1`
stdout: inactive

stdin: Test call for this compound, please: `CC(C)(C)CC(C)(C)c1ccc(OCCSC(=N)N)cc1`
stdout: inactive

stdin: Test call for this compound, please: `Cc1ccc(NS(=O)(=O)c2ccc(-c3cnc(C4CC4)o3)cc2)cc1C`
stdout: active

---

System: RXF 393 renal
method notes: NCI tumour cell line growth inhibition, 48 h; in the data active = GI50 below about 0.43 µM; inactive = the rest
Write down one outcome, taken from 1 (yes) = active, 0 (no) = inactive

CC[C@@]1(O)C(=O)OCc2c1cc1n(c2=O)Cc2cc3c([N+](=O)[O-])c(OC)ccc3nc2-1 = 1 (yes)

stdin: Test call for this molecule, please: `CN1CCN(Cc2ccc(NC(=O)c3cnc(F)c(C#Cc4cnc(N)c5ncccc45)c3)cc2C(F)(F)F)CC1`
stdout: 1 (yes)

stdin: Test call for this molecule, please: `COc1ccc(-c2cnoc2-c2ccc(OC)cc2O)cc1`
stdout: 0 (no)

stdin: Test call for this molecule, please: `CCCn1c2c(c3ccccc3c1=O)C(=O)c1cc3c(cc1-2)OCO3`
stdout: 0 (no)

stdin: Test call for this molecule, please: `COc1cc(-c2cncn2-c2ccc(-c3nc4ccc(F)cc4s3)cc2)ccc1F`
stdout: 0 (no)

stdin: Test call for this molecule, please: `O=C1c2ccc3c4c(ccc(c24)C(=O)N1CCCNCc1ccccc1F)C(=O)N(CCCNCc1ccccc1F)C3=O`
stdout: 1 (yes)

---

Tested on: HOP-62 NSCLC
method notes: NCI tumour cell line growth inhibition, 48 h; in the data active = GI50 below about 0.43 µM; inactive = the rest
Write down one outcome, taken from active, inactive

Examples with answers:
O=C1c2ccc3c4c(ccc(c24)C(=O)N1CCCNCc1ccccc1F)C(=O)N(CCCNCc1ccccc1F)C3=O = active
Cn1cc(C2=C(c3cn(C)c4cc(C(=O)O)ccc34)C(=O)NC2=O)c2ccccc21 = inactive
CC1=C(C(=O)Nc2ccc(Cl)c(Cl)c2)C(c2ccccc2Cl)NC(=S)N1 (stereo not given) = inactive
O[C@H]1C=C2[C@H](C[C@@H]1O)CN1C[C@H]2c2cc3c(cc21)OCO3 = inactive
CNCCCNc1c2cc(OC)ccc2nc2cccc([N+](=O)[O-])c12 = active
CCCCN(CCCC)CC(O)c1ccc(OCc2ccccc2)c2ccccc12 (stereo not given) = inactive
Oc1ccc(/C=C/c2ccc(O)cc2)cc1 = inactive
CCCCCCCCCCCCCCCCNC(=O)OC(C)C = inactive

stdin: Test call for this compound, please: O=CC(NC(=O)N(CCCl)N=O)C(O)C(O)C(O)CO (stereo not given)
stdout: inactive

stdin: Test call for this compound, please: `COc1ccc(CN2CCc3c(Sc4ccccc4)nc(N)nc3C2=O)c(OC)c1`
stdout: inactive
